- system under test: Nucleoprotein (Lymphocytic choriomeningitis virus (strain Armstrong)) (UniProt P09992)
- Sequence (P09992 whole entry, looked up): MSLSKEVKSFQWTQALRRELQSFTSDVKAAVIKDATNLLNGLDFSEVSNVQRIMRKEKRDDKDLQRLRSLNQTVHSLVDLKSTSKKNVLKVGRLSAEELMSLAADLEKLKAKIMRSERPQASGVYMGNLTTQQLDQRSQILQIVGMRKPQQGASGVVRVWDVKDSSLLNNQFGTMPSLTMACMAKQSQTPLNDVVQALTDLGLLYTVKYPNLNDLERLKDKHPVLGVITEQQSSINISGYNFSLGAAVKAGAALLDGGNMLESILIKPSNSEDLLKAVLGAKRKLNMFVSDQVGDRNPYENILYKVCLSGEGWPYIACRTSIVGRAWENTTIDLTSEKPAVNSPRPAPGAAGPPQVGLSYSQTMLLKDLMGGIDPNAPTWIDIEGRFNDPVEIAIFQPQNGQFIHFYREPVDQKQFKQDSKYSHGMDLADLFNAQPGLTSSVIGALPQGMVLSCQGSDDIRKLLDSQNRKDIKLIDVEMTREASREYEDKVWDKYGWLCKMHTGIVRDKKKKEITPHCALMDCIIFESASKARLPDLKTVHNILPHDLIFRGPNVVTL
- test method notes: qHTS for Inhibitors of the Functional Ribonucleoprotein Complex (vRNP) of Lymphocytic Choriomeningitis Arenaviruses (LCMV): LCMV Primary Screen - GLuc reporter signal (AID 1347086); also: nearly all actives have a fitted effect of over 70% in size
- reported conditions: LCMV minigenome vRNP cell assay, Gaussia luciferase reporter; series mostly up to 57.5 µM
Inconclusive results are not listed. Active and inactive are the calls of the source. Calls follow the shape of the full dose curve.
Outcome (select one): TRUE (active), FALSE (inactive)

Recorded call for COc1ccc(C2Sc3ccccc3N(CCN(C)C)C(=O)C2OC(C)=O)cc1 (centres undefined) ?
FALSE

Query: recorded result category for CC(=O)[C@@]1(O)CCC2C3CC[C@H]4C[C@@H](O)CC[C@]4(C)C3CC[C@@]21C (some centres undefined) in this test
FALSE

Look up the recorded call for NC(=NCCCCCCN=C(N)N=C(N)Nc1ccc(Cl)cc1)N=C(N)Nc1ccc(Cl)cc1 in this test.
FALSE

What is the recorded call for this molecule in the test? CC(C)=C[C@H]1C[C@H](C)[C@H]2CC[C@H](C)c3c(O[C@@H]4OC[C@@H](O)[C@H](O)C4O)c(O)c(C)c1c32 (some centres undefined)
FALSE

Record request — test call for CNc1ncnc2c1ncn2[C@@H]1O[C@H](CO)[C@@H](O)[C@H]1O
FALSE

Recorded test call requested for C[C@@H](NCc1cc2ccccc2[nH]1)c1cccc2ccccc12
FALSE

Given C[C@H](NCc1ccc2c(c1)nc(NC(=O)c1ccc(-c3cn[nH]c3)s1)n2CCc1ccccc1)C(C)(C)C , state the outcome it received in this test.
TRUE

Hey, what did the test say about C=CC(C)(C)O[C@@H]1O[C@H](CO)[C@@H](O)[C@H](O)[C@H]1O ?
FALSE

// return assay outcome for CC(C)=CCC/C(C)=C/CC/C(C)=C/CCC1(C)CCc2cc(O)ccc2O1 (centres undefined)
FALSE

From: PubChem BioAssay (NCATS)
